experiment description: qHTS assay to identify small molecule that activate the aryl hydrocarbon receptor (AhR) signaling pathway - cell viability counter screen (AID 743086); also: nearly all actives have a fitted effect of over 45% in size
test context: HepG2-AhR-luc viability, CellTiter-Fluor, 24 h; series mostly up to 70.3 µM
Records with an inconclusive call do not appear. Activity calls are given as the source filed them. Calls follow the shape of the dose curve; as a rule, active = well fitted cell-killing curve with a large enough effect in the repeat runs; inconclusive = weak or mixed curves, or effect the other way; inactive = flat fitted curve, though single readings scatter.
Could you please pick one outcome from this set? true (1) for active, false (0) for inactive

Qu. Tell me the assay call for `CNC(=O)c1c(I)c(C(=O)NCC(=O)Nc2c(I)c(C(=O)O)c(I)c(C(=O)NCCO)c2I)c(I)c(N(C)C(C)=O)c1I` please.
Ans. false (0)

Qu. Record: `O=C(NOC[C@H](O)CO)c1ccc(F)c(F)c1Nc1ccc(I)cc1F`
Ans. false (0)

Qu. Record: CC(=O)Nc1c(I)c(C(=O)N[C@H]2C(O)O[C@H](CO)[C@@H](O)[C@@H]2O)c(I)c(N(C)C(C)=O)c1I (stereo partly drawn)
Ans. false (0)

Qu. Record: `Cc1cccc(C)c1NC(=O)NC1=CCCN1C`
Ans. false (0)

Qu. Record: `C/C(=C(\CCOC(=O)c1ccccc1)SS/C(CCOC(=O)c1ccccc1)=C(/C)N(C=O)Cc1cnc(C)nc1N)N(C=O)Cc1cnc(C)nc1N`
Ans. false (0)

Qu. Record: `CC[C@@]1(O)C[C@H](O[C@H]2C[C@H](N(C)C)[C@H](O[C@H]3C[C@H](O)[C@H](O[C@H]4CCC(=O)[C@H](C)O4)[C@H](C)O3)[C@H](C)O2)c2c(cc3c(c2O)C(=O)c2c(O)cccc2C3=O)[C@H]1C(=O)OC`
Ans. true (1)

Qu. Record: OC1OC[C@@H](O)[C@H](O)[C@@H]1O (stereo partly drawn)
Ans. false (0)

Qu. Record: CC(O)[C@@H]1NC(=O)[C@H](CCCCN)NC(=O)[C@@H](Cc2c[nH]c3ccccc23)NC(=O)[C@H](Cc2ccccc2)NC(=O)[C@@H](NC(=O)[C@H](N)Cc2ccccc2)CSSC[C@@H](C(=O)N[C@H](CO)[C@@H](C)O)NC1=O (stereo partly drawn)
Ans. false (0)

Qu. Record: `CCOC(=O)O[C@]1(C(=O)COC(=O)CC)CC[C@H]2[C@@H]3CCC4=CC(=O)C=C[C@]4(C)[C@H]3[C@@H](O)C[C@@]21C`
Ans. false (0)

Qu. Record: CC(Oc1ccccc1)C(=O)N[C@@H]1C(=O)N2[C@@H]1SC(C)(C)[C@@H]2C(=O)O (stereo partly drawn)
Ans. false (0)

Qu. Record: `O=S(O)CNc1ccc(S(=O)(=O)c2ccc(NCS(=O)O)cc2)cc1`
Ans. false (0)

Qu. Record: `C[N+](C)(CCCCCC[N+](C)(C)C1c2ccccc2-c2ccccc21)C1c2ccccc2-c2ccccc21`
Ans. false (0)

Qu. Record: CCC(Cc1c(I)cc(I)c(O)c1I)C(=O)O (stereo not drawn)
Ans. false (0)

Qu. Record: `CCCCCCCCCCCCCCCCCC(=O)OC[C@@H](O)[C@H]1OC[C@H](O)[C@H]1O`
Ans. false (0)

Qu. Record: `Cc1cc(-c2ccc(N=Nc3c(S(=O)(=O)O)cc4cc(S(=O)(=O)O)cc(N)c4c3O)c(C)c2)ccc1N=Nc1c(S(=O)(=O)O)cc2cc(S(=O)(=O)O)cc(N)c2c1O`
Ans. true (1)

Qu. Record: `CC(C)N=c1cc2n(-c3ccc(Cl)cc3)c3ccccc3nc-2cc1Nc1ccc(Cl)cc1`
Ans. false (0)
